Taken from patent US20110207773A1.

measure: melting point

## Input What melting point value was documented for this molecule, COc1ccc(-c2cc(C(=O)Nc3cccc(F)n3)c3cccc(F)c3n2)cc1 [Compound 8] ?
## Output 201.8 to 202.8 °C

## Input Try the molecule COc1ccc(-c2cc(C(=O)Nc3cccc(F)n3)c3cc(F)ccc3n2)cc1 [Compound 10]
## Output 161.2 to 162.9 °C

## Input Moving on to the next molecule: O=C(Nc1cccc(F)n1)c1cc(-c2ccc(O)cc2)nc2c(F)cccc12 [Compound 9]
## Output 254 to 256 °C

## Input And the next one, O=C(Nc1cccc(F)n1)c1cc(-c2ccc3c(c2)OCCO3)nc2ccccc12 [Compound 13] ?
## Output 209.9 to 210.6 °C

## Input Same again, this time with Cc1ccc(NC(=O)c2cc(-c3ccc(Br)cc3)nc3ccccc23)nc1 [Compound 7]
## Output 182.4 to 183.7 °C
